testedOn: ABHD6 (Mus musculus, UniProt Q8R2Y0)
Construct: Proteomes (mouse brain membrane fraction or cell lysates); from tissue; host or cells: mouse brain membrane fraction (or cell lysates, not specified)
Sequence (Q8R2Y0 1-336): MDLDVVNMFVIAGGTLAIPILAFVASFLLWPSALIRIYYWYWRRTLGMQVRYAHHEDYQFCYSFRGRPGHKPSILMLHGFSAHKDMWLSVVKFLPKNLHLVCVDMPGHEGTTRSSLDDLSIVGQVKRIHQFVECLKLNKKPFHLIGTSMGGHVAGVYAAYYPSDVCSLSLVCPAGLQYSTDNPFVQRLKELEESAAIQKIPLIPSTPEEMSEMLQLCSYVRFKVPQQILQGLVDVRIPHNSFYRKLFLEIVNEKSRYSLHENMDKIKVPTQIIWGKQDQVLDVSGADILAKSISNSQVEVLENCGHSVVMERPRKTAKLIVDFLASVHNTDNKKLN
assayOverview: In vitro competitive activity-based protein profiling (gel-based, FP-Rh or HT-01 probe)
Format: biochemical
testContext: 1 μM inhibitor; read-out: % Inhibition at 1 μM, C = ABHD6
Known inhibition at 1 µM of a selection of compounds

A selection of reference data follows.
inhibition at 1 µM for CC(C)(C)OC(=O)N1CCN(C(=O)n2cc(C#N)cn2)CC1 ? > 75%

Input O=C(N1CCN(c2cccc(Cl)c2)CC1)n1cc(C(F)(F)F)cn1 > 75%

More entries:
inhibition at 1 µM for O=C(N1CCN(Cc2ccc(-c3ccccc3)cc2Cl)CC1)n1cc(C(F)(F)F)cn1 ? > 75%

Input O=C(N1CCN(C(c2ccc(Cl)cc2)c2ccc(Cl)cc2)CC1)n1cc(-c2ccccc2C(F)(F)F)cn1 25 to 75%

Input O=C(N1CCN(Cc2ccncn2)CC1)n1cc(-c2ccccc2)cn1 > 75%

Input O=C(c1cnn(C(=O)N2CCN(Cc3cncnc3)CC2)c1)N1CCCC1 < 25%

Input CC(=O)N1CCN(C(=O)n2cc(Cl)cn2)CC1 < 25%

###

testedOn: FAAH (Mus musculus, UniProt O08914)
Construct: Proteomes (mouse brain membrane fraction or cell lysates); from tissue; host or cells: mouse brain membrane fraction (or cell lysates, not specified)
Sequence (O08914 whole entry): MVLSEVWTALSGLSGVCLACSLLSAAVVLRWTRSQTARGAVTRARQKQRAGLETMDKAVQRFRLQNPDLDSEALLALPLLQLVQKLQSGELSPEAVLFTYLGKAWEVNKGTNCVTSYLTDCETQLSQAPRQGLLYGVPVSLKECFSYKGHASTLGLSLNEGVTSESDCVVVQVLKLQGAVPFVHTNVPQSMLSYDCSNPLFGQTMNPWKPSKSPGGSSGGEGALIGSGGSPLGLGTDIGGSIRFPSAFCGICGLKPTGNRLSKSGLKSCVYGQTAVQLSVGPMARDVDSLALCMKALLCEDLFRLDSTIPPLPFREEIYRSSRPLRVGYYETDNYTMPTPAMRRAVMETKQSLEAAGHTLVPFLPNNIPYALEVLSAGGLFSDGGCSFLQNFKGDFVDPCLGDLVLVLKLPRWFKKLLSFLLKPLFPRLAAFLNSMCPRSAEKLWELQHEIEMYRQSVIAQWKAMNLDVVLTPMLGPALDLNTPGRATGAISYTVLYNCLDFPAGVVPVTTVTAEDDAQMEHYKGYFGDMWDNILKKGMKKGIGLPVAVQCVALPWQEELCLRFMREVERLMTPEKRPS
assayOverview: In vitro competitive activity-based protein profiling (gel-based, FP-Rh or HT-01 probe)
Assay type: biochemical
testContext: 1 μM inhibitor; read-out: % Inhibition at 1 μM, B = FAAH
Known inhibition at 1 µM of a selection of compounds

inhibition at 1 µM for O=C(N1CCN(c2ccccc2N2CCOCC2)CC1)n1cc(C(F)(F)F)cn1 [Example 236] ? 25 to 75%

Input Cc1cnn(C(=O)N2CCCN(C(=O)OC(C)(C)C)CC2)c1 [Example 26] 25 to 75%

Input Cc1ccccc1N1CCN(C(=O)n2cc(C(F)(F)F)cn2)CC1 [Example 230] > 75%

Input COc1ccccc1-c1ccc(-c2cnn(C(=O)N3CCCC3)c2)cc1 [Example 107] < 25%

Input COc1cc(-c2ccccc2)ccc1CN1CCN(C(=O)n2cc(C(F)(F)F)cn2)CC1 [Example 144] > 75%

Input N#Cc1cnn(C(=O)N2CCOCC2)c1 [Example 205] > 75%

Input Cc1cc(-c2ccccc2)ccc1CN1CCN(C(=O)n2cc(C(=O)N3CCC3)cn2)CC1 [Example 93] > 75%

Input N#Cc1cnn(C(=O)NCCCCc2ccccc2)c1 [Example 36] 25 to 75%

More entries:
inhibition at 1 µM for CCN(Cc1ccc(C)cc1)C(=O)n1cc(Cl)cn1 [Example 133] ? > 75%

Entry source: patent US10093630B2
